assay: SK-BR-3 cell growth inhibitors, pilot screen, 24 h, human (AID 572); details: SK-BR-3 viability, CellTiter-Glo luminescence, at 10 µM, hits give low values;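 note: compound exposure lasted between 18 and 24 h rather than exactly 24 h; 100% = carrier-treated control wells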
readout_kind: viability (%)
Write down the numeric answer in % and omit the unit.

molecule: Cc1cn(C2CC3OCC3O2)c(=O)[nH]c1=O (configuration not stated)
viability / %: 101
--
molecule: COc1ccc(-n2nc(C(=O)NCC(=O)NCC3CCCO3)c3ccccc3c2=O)cc1 (configuration not stated)
viability / %: 120
--
molecule: CCN(C(=O)c1ccnc(C(C)(C)C)c1)c1ccccc1
viability / %: 88

Ask | Answer with reported viability of CC(=O)N1CCc2cc(S(=O)(=O)CCC(=O)Nc3cccc(F)c3)ccc21
Reply | 109
